Target: Muscarinic acetylcholine receptor M4 (Homo sapiens)
Sequence (P08173 whole entry): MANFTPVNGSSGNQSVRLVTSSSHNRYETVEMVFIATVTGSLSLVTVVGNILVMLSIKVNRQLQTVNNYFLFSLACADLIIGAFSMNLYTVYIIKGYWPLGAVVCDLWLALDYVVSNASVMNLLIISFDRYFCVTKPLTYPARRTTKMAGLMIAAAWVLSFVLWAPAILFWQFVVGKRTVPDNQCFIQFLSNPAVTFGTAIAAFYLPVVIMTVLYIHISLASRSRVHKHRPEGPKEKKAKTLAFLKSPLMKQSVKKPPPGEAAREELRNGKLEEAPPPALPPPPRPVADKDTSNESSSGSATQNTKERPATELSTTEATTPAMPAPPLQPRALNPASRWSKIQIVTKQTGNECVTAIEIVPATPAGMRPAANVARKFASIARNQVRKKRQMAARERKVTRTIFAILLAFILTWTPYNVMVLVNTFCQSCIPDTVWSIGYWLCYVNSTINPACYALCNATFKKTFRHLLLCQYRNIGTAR
Test: Modulatory activity at M4 receptor (unknown origin) expressed in CHO-K1 cells assessed as cAMP production by TR-FRET analysis
pEC50: −log10 of the molar value.
property measured: pEC50

>>> assay_result("CCOC(=O)N1CC2(CC[C@@H](N3CCC(O)(c4cc(F)cnc4-c4cnccn4)CC3)C2)C1")
"> 7.70"
>>> assay_result("CCOC(=O)N1CC2(CC[C@@H](N3CCN(c4cc(F)cnc4-c4cccc(CO)c4)CC3)C2)C1")
"> 7.70"
>>> assay_result("CCOC(=O)N1CC2(CC[C@@H](N3CCN(c4cc(F)cnc4-c4cncs4)CC3)C2)C1")
"> 7.70"
>>> assay_result("CCOC(=O)N1CC2(CC[C@@H](N3CCN(c4cc(F)cnc4-c4cnn(C(F)F)c4)CC3)C2)C1")
"> 7.70"
>>> assay_result("CCOC(=O)N1CC2(CC[C@@H](N3CCN(c4cc(F)cnc4-c4ccc(=O)n(C)c4)CC3)C2)C1")
"> 7.70"
>>> assay_result("CCOC(=O)N1CC2(CC[C@H](N3CCC(O)(c4cc(F)cnc4-c4cnccn4)CC3)C2)C1")
7.70

This collection of values is drawn from ChEMBL document CHEMBL6127156.
